# Method Description: Toxicity liver stage against HepG2, at 10uM
# Format: cell-based
# Parameters: test concentration 10 uM, cell line HepG2-A16-CD81EGFP
# Applied Conditions: human, HepG2-A16-CD81EGFP cells; read-out: INHIBITION
Please respond with reported cytotoxicity at 10 µM for every item in the list.
Note: unit % is implicit; provide only the numeric part.

q: // lookup cytotoxicity at 10 µM for CCc1nc(-c2ccc(NC(=O)N3CCOCC3)cc2)no1
a: 5.48

q: // lookup cytotoxicity at 10 µM for CN(Cc1ccsc1)C(=O)c1cccc(NS(C)(=O)=O)c1
a: -5.72

q: // lookup cytotoxicity at 10 µM for O=C(c1ccncc1F)N1CCc2ncnc(C3CC3)c2CC1
a: -78.4

q: // lookup cytotoxicity at 10 µM for CC(=O)N1Cc2ccccc2OC2(CCN(C(=O)C3CCOC3)CC2)C1 (centres undefined)
a: 0.146

q: // lookup cytotoxicity at 10 µM for CN1CCCC(N(C)S(=O)(=O)c2cccc3ncccc23)C1 (centres undefined)
a: -6.46

q: // lookup cytotoxicity at 10 µM for CC1COC2(CCN(C(=O)Cc3ccncc3)CC2)C1 (centres undefined)
a: -105

q: // lookup cytotoxicity at 10 µM for Cc1ccoc1C(=O)NC1CCN(C(=O)Nc2ccccn2)CC1
a: 1.97

q: // lookup cytotoxicity at 10 µM for Cc1cc(C)c(CNCC(O)c2ccc(F)c(F)c2)c(C)c1 (centres undefined)
a: 6.59

q: // lookup cytotoxicity at 10 µM for CN(Cc1cccc(OC(F)(F)F)c1)C(=O)c1cnsn1
a: 0.963

q: // lookup cytotoxicity at 10 µM for CNS(=O)(=O)CC(=O)NCc1cc2c(s1)CCC(C)(C)C2
a: 3.15

q: // lookup cytotoxicity at 10 µM for CCN(C)S(=O)(=O)NCC(O)c1cc2ccccc2s1 (centres undefined)
a: -8.26

q: // lookup cytotoxicity at 10 µM for CNC(=O)NCCc1csc2ccccc12
a: 2.22

q: // lookup cytotoxicity at 10 µM for O=C(NCC1CC1)C1=NOC2(CCN(Cc3ccc(Cl)c(F)c3)C2)C1 (centres undefined)
a: 13.5

q: // lookup cytotoxicity at 10 µM for CC(NC(=O)N(C)Cc1ccc2c(c1)OCO2)c1nncn1C (centres undefined)
a: -1.31

q: // lookup cytotoxicity at 10 µM for Cc1nc2c(c(N3CCC4(CCCNC4=O)C3)n1)CCC2 (centres undefined)
a: -12.8

q: // lookup cytotoxicity at 10 µM for COc1cccc(CNCc2ccc(F)c(Cl)c2)c1O
a: -13.7

q: // lookup cytotoxicity at 10 µM for COc1ccc(C(C)NC(=O)NCCNc2ccccn2)c(OC)c1 (centres undefined)
a: 0.00455

q: // lookup cytotoxicity at 10 µM for O=C(Nc1nccs1)N1CCCC(N2CCNC2=O)C1 (centres undefined)
a: -20.7

q: // lookup cytotoxicity at 10 µM for COCCC(=O)N1C[C@@H](c2cccc(OC)c2)[C@@]2(CCCCC(=O)N2)C1
a: 9.47

q: // lookup cytotoxicity at 10 µM for Cn1cccc1C(=O)N1CC[C@@H]2[C@@H]1CC(=O)N2CCN1CCOCC1
a: -7.41

q: // lookup cytotoxicity at 10 µM for Cc1nn(CC(C)C)c(N(C)C)c1CNCc1cccnc1N(C)C
a: -7.71

q: // lookup cytotoxicity at 10 µM for NC1CCCc2nc(-c3ccccc3)ncc21 (centres undefined)
a: 4.93

q: // lookup cytotoxicity at 10 µM for CC(=O)N1C[C@H](NC(=O)c2cscn2)[C@@H]2OCCC[C@@H]21
a: 2.88

q: // lookup cytotoxicity at 10 µM for CC(O)c1cn(CC2CCN(C(=O)c3cccc(N(C)C)c3)CC2)nn1 (centres undefined)
a: -0.412
